pEC50 overview
biological target: ΔF508-CFTR (Homo sapiens, UniProt P13569, DEL508-508); construct: host or cells: CFBE41o-, doxycycline-inducible; test: CFTR cell surface levels using HRP-tagged ΔF508-CFTR expressing CFBE cells, in the presence of a co-corrector; type: cell-based; conditions: HRP-tagged ΔF508-CFTR expressing CFBE cells, in the presence of 3 μM co-corrector; read-out: EC50
Sequence (P13569 with tags, fused parts or gaps DEL508-508): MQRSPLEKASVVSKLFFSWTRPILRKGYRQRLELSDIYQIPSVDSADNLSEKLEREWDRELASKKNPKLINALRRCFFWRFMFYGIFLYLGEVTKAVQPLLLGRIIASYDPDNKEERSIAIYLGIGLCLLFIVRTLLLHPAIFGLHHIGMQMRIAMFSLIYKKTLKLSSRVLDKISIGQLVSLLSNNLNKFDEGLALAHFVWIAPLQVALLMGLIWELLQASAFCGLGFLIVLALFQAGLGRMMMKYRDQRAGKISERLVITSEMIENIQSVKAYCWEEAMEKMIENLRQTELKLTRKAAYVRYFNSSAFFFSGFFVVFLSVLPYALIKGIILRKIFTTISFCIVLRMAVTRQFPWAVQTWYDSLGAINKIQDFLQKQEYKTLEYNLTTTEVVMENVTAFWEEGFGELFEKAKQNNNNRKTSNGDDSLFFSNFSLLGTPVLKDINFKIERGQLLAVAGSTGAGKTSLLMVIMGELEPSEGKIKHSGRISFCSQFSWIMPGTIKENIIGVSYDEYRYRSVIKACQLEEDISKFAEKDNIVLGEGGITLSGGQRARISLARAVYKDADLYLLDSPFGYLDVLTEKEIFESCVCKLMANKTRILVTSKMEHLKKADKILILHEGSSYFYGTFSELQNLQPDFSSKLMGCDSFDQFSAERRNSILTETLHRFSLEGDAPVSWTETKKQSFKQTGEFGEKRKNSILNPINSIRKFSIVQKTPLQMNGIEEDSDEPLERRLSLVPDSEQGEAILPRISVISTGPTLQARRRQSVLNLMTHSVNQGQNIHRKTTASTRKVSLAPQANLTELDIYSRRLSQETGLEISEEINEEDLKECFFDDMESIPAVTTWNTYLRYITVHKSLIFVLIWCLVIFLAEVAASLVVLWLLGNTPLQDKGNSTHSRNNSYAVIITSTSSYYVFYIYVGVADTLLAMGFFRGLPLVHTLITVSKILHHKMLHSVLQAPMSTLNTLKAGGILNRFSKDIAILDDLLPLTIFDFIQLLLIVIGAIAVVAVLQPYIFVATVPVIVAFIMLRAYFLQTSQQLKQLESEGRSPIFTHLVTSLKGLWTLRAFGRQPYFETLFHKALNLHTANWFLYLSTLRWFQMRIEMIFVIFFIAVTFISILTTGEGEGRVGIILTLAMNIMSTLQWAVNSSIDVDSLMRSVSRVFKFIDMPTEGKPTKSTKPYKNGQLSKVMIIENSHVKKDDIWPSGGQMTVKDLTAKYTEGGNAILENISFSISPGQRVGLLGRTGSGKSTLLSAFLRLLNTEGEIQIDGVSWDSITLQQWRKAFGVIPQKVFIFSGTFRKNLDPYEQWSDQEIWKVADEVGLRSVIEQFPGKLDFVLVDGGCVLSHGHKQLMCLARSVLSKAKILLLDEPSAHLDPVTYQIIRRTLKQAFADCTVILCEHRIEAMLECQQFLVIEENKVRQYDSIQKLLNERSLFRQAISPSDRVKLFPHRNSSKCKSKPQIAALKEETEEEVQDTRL
API: returns pEC50 as number; meaning -log10 of concentration in mol/L.

The examples below pair each entry with its known result.
CC(C)c1nn(-c2cccc(N(C)C)c2)c2nc(C(=O)O)cc(N3CCC(CO)CC3)c12 [compound 331] | 6.41
CC(C)c1nn(-c2cc(F)cc(F)c2)c2nc(C(=O)O)cc(-c3ccc(N4CCOCC4)cc3)c12 [compound 268] | 6.40

Continue with the molecule presented below.
Given COCC1CN(CC2CCN(c3cc(C(=O)O)nc4c3c(C3CCC3)nn4-c3ccccc3)CC2)C1 [compound 831] , state its recorded pEC50.
6.39

###

target: ΔF508-CFTR (Homo sapiens, UniProt P13569, DEL508-508); construct: host or cells: CFBE41o-, doxycycline-inducible; assay: CFTR cell surface levels using HRP-tagged ΔF508-CFTR expressing CFBE cells, in the presence of a co-corrector; format: cell-based; settings: HRP-tagged ΔF508-CFTR expressing CFBE cells, in the presence of 3 μM co-corrector
endpointLabel: % Activation (%)
Field: numeric (%). Do not append units.

CC(C)c1nn(C2CCCCC2)c2nc(C(=O)O)cc(-c3cnc(N4CCC(C#N)CC4)nc3)c12 | 403.1
Cc1nn(-c2ccccc2)c2nc(C(=O)O)cc(-c3ccc(N4CC[C@H](C#N)C4)cc3)c12 | 399.6
CC(C)c1nn(-c2ccc(F)cc2)c2nc(C(=O)O)cc(N3CCCC(C(F)F)C3)c12 (centres unmarked) | 336.55

Given CC(C)c1nn(-c2cc(F)cc(F)c2)c2nc(C(=O)O)cc(-c3ccc(N(C)C4CCOCC4)cc3)c12 , state its recorded % Activation.
508.37

###

target: ΔF508-CFTR (Homo sapiens, UniProt P13569, DEL508-508); construct: host or cells: CFBE41o-, doxycycline-inducible; assay: CFTR cell surface levels using HRP-tagged ΔF508-CFTR expressing CFBE cells, in the presence of a co-corrector; type: cell-based; details: HRP-tagged ΔF508-CFTR expressing CFBE cells, in the presence of 3 μM co-corrector
endpointLabel: % Activation (%)
Field: numeric (%). Do not append units.

COCC1CN(C2CCN(c3cc(C(=O)O)nc4c3c(C3CCC3)nn4-c3ccc(F)cc3)CC2)CCO1 (stereo not shown) | 509.5
O=C(O)c1cc(N2CCC[C@@H](O)C2)c2c(C3CCC3)nn(-c3ccccc3)c2n1 | 284.4
CC(C)c1nn(C2CCCCC2)c2nc(C(=O)O)cc(N3CCC(CO)CC3)c12 | 405.3

Continue with the molecule presented below.
Given COC(=O)N1CCC(COc2cc(C(=O)O)nc3c2c(C(C)C)nn3-c2ccc(F)cc2)CC1 , state its recorded % Activation.
315.5

###

EC50 overview
target: ΔF508-CFTR (Homo sapiens, UniProt P13569, DEL508-508); construct: host or cells: CFBE41o-, doxycycline-inducible; test: CFTR cell surface levels using HRP-tagged ΔF508-CFTR expressing CFBE cells, in the presence of a co-corrector; format: cell-based; conditions: HRP-tagged ΔF508-CFTR expressing CFBE cells, in the presence of 3 μM co-corrector; read-out: EC50
Field: numeric (nM). Do not append units.

The examples below pair each entry with its known result.
CCN1CCN(c2cc(C(=O)O)nc3c2c(C(C)C)nn3-c2ccc(F)cc2)CC1 [compound 772] | 1360
O=C(O)c1cc(N2CCC(CN3CC[C@@H](F)C3)CC2)c2c(C3CCC3)nn(-c3ccccc3)c2n1 [compound 832] | 1070
Cc1nn(-c2ccccc2)c2nc(C(=O)O)cc(-c3ccc(N4CCC(C#N)CC4)cc3)c12 [compound 109] | 752
Cc1nn(C2CCCCC2)c2nc(C(=O)O)cc(-c3ccc(N4CCOCC4)cc3)c12 [compound 17] | 1140

Continue with the compound presented below.
Request body: readout EC50, system ΔF508-CFTR (Homo sapiens, UniProt P13569, DEL508-508), query CC(C)c1nn(C2CCCCC2)c2nc(C(=O)O)cc(OCC3CCOCC3)c12 [compound 603] . Return the value.
870

Origin of the recorded values: patent US9796711B2
